target: human full length PIK3KA Wild-type (p110α/p85α complex) (Homo sapiens, UniProt P42336); construct: Recombinant, catalytically active human full length PIK3KA Wild-type and H1047R mutant were purchased as 1:1 complex; 6xHis (N); purchased EMD Millipore Sigma 14-602M; experiment: PI3K-alpha kinase (PIK3CA) biochemical activity, wild-type, ADP-Glo; details: PI3K-α (PIK3CA) biochemical, Soy PI lipid substrate
Sequence (P42336 whole entry): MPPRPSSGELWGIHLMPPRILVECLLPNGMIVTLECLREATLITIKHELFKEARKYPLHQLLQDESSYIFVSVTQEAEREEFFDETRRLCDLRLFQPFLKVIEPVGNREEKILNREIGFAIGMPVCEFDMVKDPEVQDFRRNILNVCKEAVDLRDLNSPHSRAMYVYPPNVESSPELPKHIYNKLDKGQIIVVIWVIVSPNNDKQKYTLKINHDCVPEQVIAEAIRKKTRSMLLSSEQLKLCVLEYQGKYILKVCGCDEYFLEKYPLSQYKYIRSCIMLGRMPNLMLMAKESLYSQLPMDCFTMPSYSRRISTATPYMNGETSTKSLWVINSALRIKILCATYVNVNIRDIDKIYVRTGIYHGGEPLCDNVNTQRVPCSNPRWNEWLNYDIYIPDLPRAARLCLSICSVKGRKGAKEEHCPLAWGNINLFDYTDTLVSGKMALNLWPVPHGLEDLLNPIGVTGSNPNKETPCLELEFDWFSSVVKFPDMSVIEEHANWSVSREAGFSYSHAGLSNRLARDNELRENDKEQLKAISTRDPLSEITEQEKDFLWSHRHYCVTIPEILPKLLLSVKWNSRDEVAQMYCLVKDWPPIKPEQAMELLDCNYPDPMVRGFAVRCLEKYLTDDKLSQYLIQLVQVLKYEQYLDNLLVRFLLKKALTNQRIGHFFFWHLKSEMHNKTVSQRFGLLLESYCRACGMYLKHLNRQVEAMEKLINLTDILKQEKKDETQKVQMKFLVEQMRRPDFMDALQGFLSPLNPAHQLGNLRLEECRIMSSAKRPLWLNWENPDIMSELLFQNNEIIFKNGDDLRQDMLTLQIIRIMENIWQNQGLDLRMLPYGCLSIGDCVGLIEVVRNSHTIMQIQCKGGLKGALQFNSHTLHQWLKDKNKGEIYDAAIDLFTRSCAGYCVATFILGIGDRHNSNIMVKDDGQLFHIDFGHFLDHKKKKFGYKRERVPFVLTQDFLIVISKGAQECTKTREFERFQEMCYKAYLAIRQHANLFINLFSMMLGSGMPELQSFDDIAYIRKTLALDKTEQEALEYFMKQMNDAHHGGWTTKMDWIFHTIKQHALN
Sequence (P27986 whole entry partner): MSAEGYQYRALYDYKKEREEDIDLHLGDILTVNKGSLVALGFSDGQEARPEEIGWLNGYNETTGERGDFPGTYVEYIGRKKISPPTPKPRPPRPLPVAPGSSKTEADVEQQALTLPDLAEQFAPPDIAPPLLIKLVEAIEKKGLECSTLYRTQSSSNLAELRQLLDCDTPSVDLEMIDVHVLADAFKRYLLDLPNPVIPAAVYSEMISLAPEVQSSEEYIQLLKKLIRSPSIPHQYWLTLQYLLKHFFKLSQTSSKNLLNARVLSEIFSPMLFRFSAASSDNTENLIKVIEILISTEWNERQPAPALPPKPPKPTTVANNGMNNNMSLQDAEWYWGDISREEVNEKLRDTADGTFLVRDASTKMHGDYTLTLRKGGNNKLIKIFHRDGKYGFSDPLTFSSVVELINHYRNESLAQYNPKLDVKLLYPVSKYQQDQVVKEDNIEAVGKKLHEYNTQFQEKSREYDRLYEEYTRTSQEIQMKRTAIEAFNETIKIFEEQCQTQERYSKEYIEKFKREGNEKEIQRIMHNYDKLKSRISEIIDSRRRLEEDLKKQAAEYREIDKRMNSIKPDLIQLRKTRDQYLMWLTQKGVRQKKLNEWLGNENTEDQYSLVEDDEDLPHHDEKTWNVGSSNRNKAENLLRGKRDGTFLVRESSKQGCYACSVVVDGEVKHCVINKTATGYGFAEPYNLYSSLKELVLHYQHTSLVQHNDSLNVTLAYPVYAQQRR
pIC50: −log10 of the molar value.

>  <molecule>
Cc1cc(C(C)Nc2cccc(F)c2C(=O)O)c2oc(-c3ccccc3F)cc(=O)c2c1 (single isomer, unassigned; isomer 1) [Example 107]

>  <pIC50>
5.30 to 6.00

$$$$
>  <molecule>
Cc1cc(C(C)Nc2ccccc2C(=O)O)c2oc(-c3ccc(C4(C#N)CC4)cc3)cc(=O)c2c1 (single isomer, unassigned; isomer 1) [Example 52]

>  <pIC50>
5.00 to 5.30

$$$$
>  <molecule>
Cc1cc([C@@H](C)Nc2ccccc2C(=O)O)c2oc(-c3ccc(-c4c(C)n[nH]c4C)cc3)c(C)c(=O)c2c1

>  <pIC50>
5.30 to 6.00

$$$$
>  <molecule>
Cc1cc(C(C)Nc2cccc(F)c2C(=O)O)c2oc(-c3cccc(F)c3)c(C)c(=O)c2c1 (single isomer, unassigned; isomer 2) [Example 106]

>  <pIC50>
5.30 to 6.00

$$$$
>  <molecule>
Cc1cc([C@@H](C)Nc2cccc(F)c2C(=O)O)c2oc(-c3ccccc3)c(C)c(=O)c2c1

>  <pIC50>
6.00 to 6.30

$$$$
>  <molecule>
Cc1cc([C@@H](C)Nc2ccccc2C(=O)O)c2oc(-c3ccc(F)cc3)c(C)c(=O)c2c1

>  <pIC50>
6.00 to 6.30

$$$$
>  <molecule>
Cc1cc([C@@H](C)Nc2ccc(C)nc2C(=O)O)c2oc(-c3ccccc3)cc(=O)c2c1

>  <pIC50>
5.00 to 5.30

$$$$
>  <molecule>
Cc1cc([C@@H](C)Nc2ccccc2C(=O)O)c2oc(-c3ccc(-c4ccn[nH]4)cc3)c(C)c(=O)c2c1

>  <pIC50>
6.00 to 6.30

$$$$
>  <molecule>
Cc1cc([C@@H](C)Nc2ccc(Cl)cc2C(=O)O)c2oc(-c3cccc(F)c3)c(C)c(=O)c2c1

>  <pIC50>
5.30 to 6.00

$$$$
>  <molecule>
Cc1cc([C@@H](C)Nc2ccccc2C(=O)O)c2oc(-c3cccc(F)c3)c(C)c(=O)c2c1

>  <pIC50>
5.30 to 6.00

$$$$
>  <molecule>
Cc1cc([C@@H](C)Nc2ccccc2C(=O)O)c2oc(-c3ccccc3)c(-c3cccnc3)c(=O)c2c1

>  <pIC50>
5.30 to 6.00

$$$$
>  <molecule>
Cc1cc([C@@H](C)Nc2ccc(Cl)nc2C(=O)O)c2oc(-c3ccccc3)cc(=O)c2c1

>  <pIC50>
> 6.30

$$$$
>  <molecule>
Cc1cc([C@@H](C)Nc2ccccc2C(=O)O)c2oc(-c3ccc(-c4cnn(C)c4)cc3)c(C)c(=O)c2c1

>  <pIC50>
> 6.30

$$$$
>  <molecule>
COc1ncc(N[C@H](C)c2cc(C)cc3c(=O)c(C)c(-c4ccccc4)oc23)c(C(=O)O)n1

>  <pIC50>
5.30 to 6.00

$$$$
>  <molecule>
Cc1cc([C@@H](C)Nc2ccc(Br)cc2C(=O)O)c2oc(-c3ccccc3)c(C)c(=O)c2c1

>  <pIC50>
5.30 to 6.00

$$$$
>  <molecule>
Cc1cc([C@@H](C)Nc2cccc(Cl)c2C(=O)O)c2oc(-c3ccccc3)c(C)c(=O)c2c1

>  <pIC50>
5.00 to 5.30

$$$$
>  <molecule>
Cc1cc(C(C)Nc2ccccc2C(=O)O)c2oc(-c3ccccc3)c(F)c(=O)c2c1 (single isomer, unassigned; isomer 2) [Example 133]

>  <pIC50>
5.30 to 6.00

$$$$
>  <molecule>
Cc1c(-c2ccccc2)oc2c([C@@H](C)Nc3ccccc3C(=O)O)cc(F)cc2c1=O [Example 72]

>  <pIC50>
5.30 to 6.00

$$$$
>  <molecule>
Cc1cc([C@@H](C)Nc2ccc(Cl)nc2C(=O)O)c2oc(-c3ccc(F)cc3F)c(C)c(=O)c2c1

>  <pIC50>
5.30 to 6.00

$$$$
>  <molecule>
Cc1cc([C@@H](C)Nc2ccc(Cl)cc2C(=O)O)c2oc(-c3cccc(C#N)c3)c(C)c(=O)c2c1

>  <pIC50>
6.00 to 6.30

$$$$
>  <molecule>
Cc1cc([C@@H](C)Nc2cncnc2C(=O)O)c2oc(-c3ccccc3)c(C)c(=O)c2c1

>  <pIC50>
< 5.00

$$$$
>  <molecule>
Cc1cc([C@@H](C)Nc2ccccc2C(=O)O)c2oc(-c3cccc(F)c3F)c(C)c(=O)c2c1

>  <pIC50>
5.00 to 5.30

$$$$
>  <molecule>
Cc1cc([C@@H](C)Nc2ccccc2C(=O)O)c2oc(-c3ccccc3C#N)cc(=O)c2c1

>  <pIC50>
5.00 to 5.30

$$$$
>  <molecule>
Cc1cc([C@@H](C)Nc2ccccc2C(=O)O)c2oc(-c3ccc(-c4cn[nH]c4)cc3)c(C)c(=O)c2c1

>  <pIC50>
6.00 to 6.30

$$$$
>  <molecule>
Cc1cc([C@@H](C)Nc2ccccc2C(=O)O)c2oc(-c3cccc(C(F)F)c3)c(C)c(=O)c2c1

>  <pIC50>
< 5.00

$$$$
>  <molecule>
Cc1cc([C@@H](C)Nc2ccc(C#N)cc2C(=O)O)c2oc(-c3ccccc3)c(C)c(=O)c2c1 (single isomer, unassigned; isomer 2) [Example 158]

>  <pIC50>
5.30 to 6.00

$$$$
>  <molecule>
Cc1cc([C@@H](C)Nc2ccccc2C(=O)O)c2oc(-c3ccccc3)c(NCCC(=O)O)c(=O)c2c1

>  <pIC50>
< 5.00

$$$$
>  <molecule>
Cc1cc(C(C)Nc2ccccc2C(=O)O)c2oc(-c3ccc(S(C)(=O)=O)cc3)cc(=O)c2c1 (stereo not shown) [Example 9]

>  <pIC50>
< 5.00

$$$$
